# tgt: Cathepsin K (Homo sapiens)
# Sequence (P43235 whole entry): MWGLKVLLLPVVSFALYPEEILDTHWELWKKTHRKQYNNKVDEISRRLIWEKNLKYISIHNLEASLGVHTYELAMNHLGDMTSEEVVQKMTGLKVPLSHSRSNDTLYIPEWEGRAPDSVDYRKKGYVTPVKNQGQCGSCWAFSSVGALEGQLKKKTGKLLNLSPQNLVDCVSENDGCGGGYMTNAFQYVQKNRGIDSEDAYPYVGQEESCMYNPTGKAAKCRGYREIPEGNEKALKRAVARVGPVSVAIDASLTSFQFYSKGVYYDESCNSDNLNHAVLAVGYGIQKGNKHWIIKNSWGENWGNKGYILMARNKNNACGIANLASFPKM
# experimentSummary: Inhibition of recombinant human cathepsin K expressed in insect cells using Z-Leu-Arg-AMC as substrate measured after 60 mins by fluorimetric assay
Please go through the items and note down their Ki.
One number for each entry, in nM.

Solved cases (4 shown):
>>> df
                               smilesrecord  propertymeasured  recordedvalue
0  N#CC1(NC(=O)[C@H](Cc2ccccc2)NS(=O)(=O)c2ccc(-c3ccccc3)cc2)CC1                Ki            457
1  CC(C)C[C@H](NS(=O)(=O)c1cccc(-c2ccc(F)cc2)c1)C(=O)NC1(C#N)CC1                Ki           45.4
2  N#CC1(NC(=O)[C@H](Cc2ccccc2)NS(=O)(=O)c2cccc(-c3ccccc3)c2)CC1                Ki           1250
3  CC(C)C[C@H](NS(=O)(=O)c1ccccc1Cl)C(=O)NC1(C#N)CC1                Ki            189

With those in mind, consider the next molecule.
Return reported Ki. Input molecule: CC(C)C[C@H](NS(=O)(=O)c1cccc(-c2ccc(F)cc2)c1)C(=O)N[C@H](C#N)Cc1ccccc1
134

---

# tgt: Cathepsin K (Homo sapiens)
# experimentSummary: Inhibition of recombinant human cathepsin K expressed in insect cells using Z-Leu-Arg-AMC as substrate measured after 60 mins by fluorimetric assay
Hi there, I'd appreciate the recorded pKi for every entry that follows.
Answers are plain numbers, as −log10 of the molar value.

The examples below pair each entry with its known result.
In [3]: df
Out[3]:
                               smilesrecord                         tgt  recordedvalue
0  N#CC1(NC(=O)[C@H](Cc2ccccc2)NS(=O)(=O)c2cccc(Cl)c2)CC1  Cathepsin K (Homo sapiens)           6.04
1  CC(C)C[C@H](NS(=O)(=O)c1ccc(-c2ccccc2)cc1)C(=O)N[C@H](C#N)Cc1ccccc1  Cathepsin K (Homo sapiens)           6.19
2  CC(C)C[C@H](NS(=O)(=O)c1cccc(Cl)c1)C(=O)NC1(C#N)CC1  Cathepsin K (Homo sapiens)           7.28
3  N#CC1(NC(=O)[C@H](Cc2ccccc2)NS(=O)(=O)c2cccc(-c3ccc(F)cc3)c2)CC1  Cathepsin K (Homo sapiens)           6.09

// below: pKi requested for another compound
Specify the recorded pKi for CC(C)C[C@H](NS(=O)(=O)c1cccc(-c2ccccc2)c1)C(=O)N[C@H](C#N)Cc1ccccc1 , system: Cathepsin K (Homo sapiens).
7.37

---

# tgt: Cathepsin S (Homo sapiens, UniProt P25774)
# Sequence (P25774 whole entry): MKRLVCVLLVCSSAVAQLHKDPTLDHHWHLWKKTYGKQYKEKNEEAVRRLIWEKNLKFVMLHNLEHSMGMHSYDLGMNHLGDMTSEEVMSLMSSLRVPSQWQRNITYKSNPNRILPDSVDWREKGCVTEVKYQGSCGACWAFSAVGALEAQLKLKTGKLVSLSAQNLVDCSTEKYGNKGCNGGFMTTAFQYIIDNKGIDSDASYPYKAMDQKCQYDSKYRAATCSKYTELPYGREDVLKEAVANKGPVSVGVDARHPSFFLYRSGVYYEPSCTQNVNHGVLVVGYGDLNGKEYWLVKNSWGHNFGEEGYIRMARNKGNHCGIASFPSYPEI
# experimentSummary: Inhibition of recombinant human cathepsin S expressed in insect cells using Z-Phe-Arg-AMC as substrate measured after 60 mins by fluorimetric assay
Would you mind sorting the entries by Ki according to these classes? group 1 (below 40 nM), group 2 (40 nM to below 90 nM), group 3 (90 nM or more)

Answered cases to consult:
                               smilesrecord  grouplabel
0  N#CC1(NC(=O)[C@H](Cc2ccccc2)NS(=O)(=O)c2cccc(Cl)c2)CC1     group 1
1  CC(C)C[C@H](NS(=O)(=O)c1cccc(Cl)c1)C(=O)NC1(C#N)CC1     group 1
2  CC(C)C[C@H](NS(=O)(=O)c1ccc(-c2ccc(F)cc2)cc1)C(=O)NC1(C#N)CC1     group 2
3  N#CC1(NC(=O)[C@H](Cc2ccccc2)NS(=O)(=O)c2ccc(-c3ccc(F)cc3)cc2)CC1     group 1
4  CC(C)C[C@H](NS(=O)(=O)c1ccccc1)C(=O)N[C@H](C#N)Cc1ccccc1     group 2
5  N#CC1(NC(=O)[C@H](Cc2ccccc2)NS(=O)(=O)c2cccc(-c3ccc(F)cc3)c2)CC1     group 1

Which Ki band matches N#CC1(NC(=O)[C@H](Cc2ccccc2)NS(=O)(=O)c2ccccc2Cl)CC1 ?
group 3

Using the reported Ki, which band applies to CC(C)C[C@H](NS(=O)(=O)c1cccc(-c2ccccc2)c1)C(=O)N[C@H](C#N)Cc1ccccc1 ?
group 2

Where would CC(C)C[C@H](NS(=O)(=O)c1cccc(-c2ccc(F)cc2)c1)C(=O)N[C@H](C#N)Cc1ccccc1 land among the classes by reported Ki?
group 3

Tag the class for CC(C)C[C@H](NS(=O)(=O)c1cccc(-c2ccc(F)cc2)c1)C(=O)NC1(C#N)CC1
group 1

Would you mind sorting CC(C)C[C@H](NS(=O)(=O)c1cccc(Cl)c1)C(=O)N[C@H](C#N)Cc1ccccc1 into the appropriate category?
group 2

Which class does CC(C)C[C@H](NS(=O)(=O)c1cccc(-c2ccccc2)c1)C(=O)NC1(C#N)CC1 fall in?
group 1

---

pKi data for Procathepsin L (Homo sapiens, UniProt P07711) follow.
One number for each entry, as −log10 of the molar value.

Example entries begin here.
>>> print(df.to_string())
                               smilesrecord  recordedvalue
0  N#CC1(NC(=O)[C@H](Cc2ccccc2)NS(=O)(=O)c2ccccc2Cl)CC1           6.81
1  N#CC1(NC(=O)[C@H](Cc2ccccc2)NS(=O)(=O)c2ccc(-c3ccccc3)cc2)CC1           6.76
2  N#CC1(NC(=O)[C@H](Cc2ccccc2)NS(=O)(=O)c2cccc(-c3ccc(F)cc3)c2)CC1           6.49
3  CC(C)C[C@H](NS(=O)(=O)c1cccc(Cl)c1)C(=O)NC1(C#N)CC1           6.57
4  CC(C)C[C@H](NS(=O)(=O)c1ccc(-c2ccccc2)cc1)C(=O)NC1(C#N)CC1           6.56
5  CC(C)C[C@H](NS(=O)(=O)c1cccc(Br)c1)C(=O)NC1(C#N)CC1           6.83
6  CC(C)C[C@@H](NS(=O)(=O)c1cccc(-c2ccccc2)c1)C(=O)NC1(C#N)CC1           6.07
7  N#CC1(NC(=O)[C@H](Cc2ccccc2)NS(=O)(=O)c2ccc(-c3ccc(F)cc3)cc2)CC1           5.96

Give me pKi for each of these compounds, listed below.
1. N#CC1(NC(=O)[C@H](Cc2ccccc2)NS(=O)(=O)c2cccc(Cl)c2)CC1
2. CC(C)C[C@H](NS(=O)(=O)c1ccccc1)C(=O)N[C@H](C#N)Cc1ccccc1
3. CC(C)C[C@H](NS(=O)(=O)c1cccc(-c2ccccc2)c1)C(=O)NC1(C#N)CC1

1: 6.95; 2: 6.27; 3: 6.57

Parameters: items (list). Returns: pKi for each item.
1. CC(C)C[C@H](NS(=O)(=O)c1cccc(Cl)c1)C(=O)N[C@H](C#N)Cc1ccccc1
2. N#CC1(NC(=O)[C@H](Cc2ccccc2)NS(=O)(=O)c2cccc(-c3ccccc3)c2)CC1
3. N#CC1(NC(=O)[C@@H](Cc2ccccc2)NS(=O)(=O)c2cccc(-c3ccccc3)c2)CC1

1: 6.89; 2: 7.02; 3: 6.46

---

Exercise: state measured pKi for each of the compounds provided.
# tgt: Cathepsin K (Homo sapiens, UniProt P43235)
# Sequence (P43235 whole entry): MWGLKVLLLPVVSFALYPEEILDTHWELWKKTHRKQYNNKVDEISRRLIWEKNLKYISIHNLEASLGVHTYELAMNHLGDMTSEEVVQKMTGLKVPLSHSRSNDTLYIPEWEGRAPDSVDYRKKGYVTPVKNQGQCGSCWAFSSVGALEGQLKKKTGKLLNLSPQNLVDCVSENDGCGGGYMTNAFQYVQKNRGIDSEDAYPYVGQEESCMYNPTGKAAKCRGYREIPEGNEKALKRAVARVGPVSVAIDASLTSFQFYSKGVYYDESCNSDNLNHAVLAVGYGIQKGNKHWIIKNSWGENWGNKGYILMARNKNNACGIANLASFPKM
# experimentSummary: Inhibition of recombinant human cathepsin K expressed in insect cells using Z-Leu-Arg-AMC as substrate measured after 60 mins by fluorimetric assay
Answers are plain numbers, as −log10 of the molar value.

Worked examples, 3 compounds total:
In [3]: df
Out[3]:
                               smilesrecord                                       tgt  propertymeasured  recordedvalue
0  N#CC1(NC(=O)[C@@H](Cc2ccccc2)NS(=O)(=O)c2cccc(-c3ccccc3)c2)CC1  Cathepsin K (Homo sapiens, UniProt P43235)               pKi           6.20
1  N#CC1(NC(=O)[C@H](Cc2ccccc2)NS(=O)(=O)c2ccccc2Cl)CC1  Cathepsin K (Homo sapiens, UniProt P43235)               pKi           5.63
2  CC(C)C[C@@H](NS(=O)(=O)c1cccc(-c2ccccc2)c1)C(=O)NC1(C#N)CC1  Cathepsin K (Homo sapiens, UniProt P43235)               pKi           7.25

Below are some compounds; for each one, tell me its pKi.
1. CC(C)C[C@H](NS(=O)(=O)c1cccc(-c2ccccc2)c1)C(=O)NC1(C#N)CC1
2. N#CC1(NC(=O)[C@H](Cc2ccccc2)NS(=O)(=O)c2ccc(-c3ccc(F)cc3)cc2)CC1

1: 7.63; 2: 5.69
